A collection of binders and their measured neutralization IC50, Vero cells
target under test: ZIKV envelope glycoprotein (E) of strain FLR (Colombia 2015) (Zika virus)
test details: cell-based or functional assay
measured quantity: neutralization IC50, Vero cells (nM)

| binder | endpoint unit | result value |
| --- | --- | --- |
| H4H25704N (antibody, V domains shown) VH: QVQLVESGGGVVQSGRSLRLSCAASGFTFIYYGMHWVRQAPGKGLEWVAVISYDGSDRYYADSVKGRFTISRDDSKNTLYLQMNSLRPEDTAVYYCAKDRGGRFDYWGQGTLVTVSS VL: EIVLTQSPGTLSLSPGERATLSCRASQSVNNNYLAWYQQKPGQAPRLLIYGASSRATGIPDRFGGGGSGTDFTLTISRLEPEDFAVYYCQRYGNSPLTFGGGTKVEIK | nM | 0.0758 |
| H4H25591P (antibody, V domains shown) VH: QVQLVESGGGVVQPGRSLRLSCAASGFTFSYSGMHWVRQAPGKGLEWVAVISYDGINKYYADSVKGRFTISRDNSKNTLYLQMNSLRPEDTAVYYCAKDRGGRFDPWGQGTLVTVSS VL: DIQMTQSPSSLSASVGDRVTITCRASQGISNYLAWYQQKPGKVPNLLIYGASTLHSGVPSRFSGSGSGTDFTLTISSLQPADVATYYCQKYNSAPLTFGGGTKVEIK | nM | 0.33 |
| H4H25566P (antibody, V domains shown) VH: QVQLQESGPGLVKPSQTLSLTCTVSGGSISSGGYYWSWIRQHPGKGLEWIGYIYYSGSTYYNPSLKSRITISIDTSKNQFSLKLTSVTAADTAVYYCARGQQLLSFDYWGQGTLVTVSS VL: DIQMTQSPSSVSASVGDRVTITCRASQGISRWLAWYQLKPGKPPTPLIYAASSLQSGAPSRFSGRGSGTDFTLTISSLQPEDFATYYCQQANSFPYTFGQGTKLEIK | nM | 1.55 |
